The reported measurements were obtained from ChEMBL document CHEMBL4177667.

// values below are reported pIC50
- System: MGC-803
- protocol-notes: Antiproliferative activity against human MGC803 cells after 48 hrs by MTT assay
- Type: functional, cell-based
- run-parameters: MGC-803, 48 h
pIC50: −log10 of the molar value.
assay-readout: pIC50

{"molecule": "COC1=CC(=O)c2cc3c4c(cc(OC)c(OC)c4c2C1=O)CCN3C", "bound-sign": "=", "reported-result": 4.30}
{"molecule": "COc1ccc2c(c1O)-c1c(OC)c(OC)cc3c1[C@H](C2)N(C)CC3 [ISOCORYDINE]", "bound-sign": "<", "reported-result": 3.70}
{"molecule": "COc1cc(NC(=O)Nc2ccc(N3CCC(N)CC3)c(C(F)(F)F)c2)c2c(c1O)-c1c(OC)c(OC)cc3c1[C@H](C2)N(C)CC3", "bound-sign": "=", "reported-result": 4.49}
{"molecule": "COc1cc(NC(=O)c2ccc(Cl)c(C(F)(F)F)c2)c2c(c1O)-c1c(OC)c(OC)cc3c1[C@H](C2)N(C)CC3", "bound-sign": "=", "reported-result": 4.66}
{"molecule": "COc1cc(NC(=O)Nc2ccc(Cl)c(C(F)(F)F)c2)c2c(c1O)-c1c(OC)c(OC)cc3c1[C@H](C2)N(C)CC3", "bound-sign": "=", "reported-result": 4.78}
